Target: human SGLT1 (Homo sapiens, UniProt P13866)
Sequence (P13866 1-664): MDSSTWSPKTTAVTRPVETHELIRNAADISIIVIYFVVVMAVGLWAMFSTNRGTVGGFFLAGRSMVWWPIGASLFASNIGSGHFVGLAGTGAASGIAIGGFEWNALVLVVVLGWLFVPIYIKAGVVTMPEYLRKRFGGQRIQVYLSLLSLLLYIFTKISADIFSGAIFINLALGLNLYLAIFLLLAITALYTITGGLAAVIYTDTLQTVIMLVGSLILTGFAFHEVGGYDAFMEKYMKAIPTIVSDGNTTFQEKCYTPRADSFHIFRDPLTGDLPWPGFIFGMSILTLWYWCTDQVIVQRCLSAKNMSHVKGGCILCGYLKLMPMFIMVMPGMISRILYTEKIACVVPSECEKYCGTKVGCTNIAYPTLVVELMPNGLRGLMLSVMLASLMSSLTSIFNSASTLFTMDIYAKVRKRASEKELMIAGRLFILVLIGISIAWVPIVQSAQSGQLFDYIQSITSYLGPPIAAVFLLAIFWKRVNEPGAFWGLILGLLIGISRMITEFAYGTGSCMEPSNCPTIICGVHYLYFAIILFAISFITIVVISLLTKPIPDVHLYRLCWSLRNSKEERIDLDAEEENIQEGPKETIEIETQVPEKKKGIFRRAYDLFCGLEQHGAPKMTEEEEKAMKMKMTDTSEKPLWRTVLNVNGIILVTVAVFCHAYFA
Test: Inhibition test for sodium-dependent sugar uptake in CHO-K1 cells stably expressing human SGLT1
Settings: [14C]methyl α-D-glucopyranoside uptake, 37° C., 30 minutes, read-out: human SGLT1 IC50 (50% inhibition of sugar uptake)
value_type: pIC50
// pIC50: -log10(molar conc.)

Study these solved cases before continuing.
In [3]: df
Out[3]:
                           structure_smiles  reading
0  Cc1cc(O)c([C@@H]2S[C@H](CO)[C@@H](O)[C@H](O)[C@H]2O)cc1Cc1ccc(CCCNC(=O)NC(C)(C)CO)cc1     7.66
1  Cc1cc(CCCC(=O)NC(C)(C)CO)ccc1Cc1cc([C@@H]2S[C@H](CO)[C@@H](O)[C@H](O)[C@H]2O)c(O)cc1C     7.70
2  Cc1cc(O)c([C@@H]2S[C@H](CO)[C@@H](O)[C@H](O)[C@H]2O)cc1Cc1ccc(CCCC(=O)NC(C)(C)CO)cc1     7.96
3  Cc1cc(O)c([C@@H]2S[C@H](CO)[C@@H](O)[C@H](O)[C@H]2O)cc1Cc1ccc(CCCC(=O)NC(C)(C)C(N)=O)cc1     7.33
4  Cc1cc(O)c([C@@H]2S[C@H](CO)[C@@H](O)[C@H](O)[C@H]2O)cc1Cc1ccc(CCCCC(=O)NC(C)(C)CO)cc1     7.10

Query block: Query (compound): Cc1cc(O)c([C@@H]2S[C@H](CO)[C@@H](O)[C@H](O)[C@H]2O)cc1Cc1ccc(CCCC(=O)NC(C)(CO)CO)cc1 ; field requested: pIC50
Result block: 7.66

Query block: And what about the compound Cc1cc(O)c([C@@H]2S[C@H](CO)[C@@H](O)[C@H](O)[C@H]2O)cc1Cc1ccc(CCCC(=O)NC(CO)(CO)CO)cc1 ?
Result block: 7.46
